Origin of the recorded values: patent US20250222116A1

- System: breast tumor cells MDA-MB-436
- Protocol: MDA-MB-436 cell activity test (CellTiter-Glo, 7 days)
- Format: cell-based, human
- Assay Conditions: Homo sapiens, MDA-MB-436, 168 h, MDA-MB-436 cells, 7 days incubation; read-out: IC50 (nM), MDA-MB-436 cell inhibitory activity
Overview of reported IC50 across a group of compounds:
Measured Quantity: IC50

[[record]]
compound = "CCc1cc2ncc(CN3CCN(c4ccc(C(=O)N[C@H]5C[C@H](Oc6ccc7c(c6)C(=O)N(C6CCC(=O)NC6=O)C7=O)C5)nc4)CC3)cc2[nH]c1=O (stereo partly drawn)"
result = "38 nM"

[[record]]
compound = "CCc1cc2ncc(CN3CCN(c4ccc(C(=O)NC5CCN(C6CN(c7cccc8c7C(=O)N(C7CCC(=O)NC7=O)C8=O)C6)CC5)nc4)CC3)cc2[nH]c1=O (stereo not drawn)"
result = "25 nM"

[[record]]
compound = "CCc1cc2ncc(CN3CCN(c4ccc(C(=O)NC5CN(C(=O)CC67CC8C[C@H](C6)C[C@H](C8)C7)C5)nc4)CC3)cc2[nH]c1=O"
result = "5 nM"

[[record]]
compound = "CCc1cc2ncc(CN3CC=C(c4ccc(C(=O)NC5CCN(c6cccc(N7CCC(=O)NC7=O)c6)CC5)nc4)CC3)cc2[nH]c1=O"
result = "16.1 nM"

[[record]]
compound = "CCc1cc2ncc(CN3CC=C(c4ccc(C(=O)Nc5cnn(C6CCN(c7ccc8c(c7)C(=O)N(C7CCC(=O)NC7=O)C8=O)CC6)c5)nc4)CC3)cc2[nH]c1=O (stereo not drawn)"
result = "6 nM"

[[record]]
compound = "CCc1cc2ncc(CN3CCN(c4ccc(C(=O)NC5CCN(c6ccc7c(c6)C(=O)N(C6CCC(=O)NC6=O)C7)CC5)nc4)CC3)cc2[nH]c1=O (stereo not drawn)"
result = "28 nM"

[[record]]
compound = "CCc1cc2ncc(CN3CCN(c4ccc(C(=O)NC5CCN(C6CN(c7cc8c(cc7F)C(=O)N(C7CCC(=O)NC7=O)C8=O)C6)CC5)nc4)CC3)cc2[nH]c1=O (stereo not drawn)"
result = "53 nM"

[[record]]
compound = "CCc1cc2ncc(CN3CCN(c4ccc(C(=O)NC5CCN(c6cccc7c6C(=O)N(C6CCC(=O)NC6=O)C7=O)CC5)nc4)CC3)cc2[nH]c1=O (stereo not drawn)"
result = "21 nM"

[[record]]
compound = "CCc1cc2ncc(CN3CCN(c4ccc(C(=O)NC5CCC(Oc6ccc7c(c6)C(=O)N(C6CCC(=O)NC6=O)C7=O)CC5)nc4)CC3)cc2[nH]c1=O (stereo not drawn)"
result = "97.8 nM"


----------
- Protocol: Pharmacokinetic test in rats
- Assay type: in vivo, SD rats
- Assay Conditions: male, SD, rat, iv, i.v. 2.5 mg/kg, plasma
Overview of reported clearance across a group of compounds:
Measured Quantity: clearance (mL/min/kg)

[[record]]
compound = "CCc1cc2ncc(CN3CC=C(c4ccc(C(=O)Nc5cnn(C6CCN(c7ccc8c(c7)C(=O)N(C7CCC(=O)NC7=O)C8=O)CC6)c5)nc4)CC3)cc2[nH]c1=O (centres unmarked)"
measured_quantity = "clearance"
numeric_readout = 0.713

[[record]]
compound = "CCc1cc2ncc(CN3CCN(c4ccc(C(=O)NC5CCN(c6ccc7c(c6)C(=O)N(C6CCC(=O)NC6=O)C7=O)CC5)nc4)CC3)cc2[nH]c1=O (centres unmarked)"
measured_quantity = "clearance"
numeric_readout = 1.42


----------
- Tested on: breast tumor cells MDA-MB-436
- Protocol: MDA-MB-436 cell activity test (CellTiter-Glo, 7 days)
- Type: cell-based, human
- Assay Conditions: Homo sapiens, MDA-MB-436, MDA-MB-436 cells, 10 μM; read-out: Max inh. % 10 μM
Measured Quantity: inhibition at 10 µM (%)

[[record]]
molecule = "CCc1cc2ncc(CN3CCN(c4ccc(C(=O)N[C@H]5CCN(c6cc7c(cc6F)C(=O)N(C6CCC(=O)NC6=O)C7=O)C5)nc4)CC3)cc2[nH]c1=O (stereo partly drawn)"
experimental_target = "breast tumor cells MDA-MB-436"
measured_quantity = "inhibition at 10 µM"
numeric_readout = 97.5

[[record]]
molecule = "CCc1cc2ncc(CN3CCN(c4ccc(C(=O)Nc5cnn(C6CCN(c7ccc8c(c7)C(=O)N(C7CCC(=O)NC7=O)C8=O)CC6)c5)nc4)CC3)cc2[nH]c1=O (stereo not drawn)"
experimental_target = "breast tumor cells MDA-MB-436"
measured_quantity = "inhibition at 10 µM"
numeric_readout = 84

[[record]]
molecule = "CCc1cc2ncc(CN3CCN(c4ccc(C(=O)N[C@H]5CCN(c6ccc7c(c6)C(=O)N(C6CCC(=O)NC6=O)C7=O)C5)nc4)CC3)cc2[nH]c1=O (stereo partly drawn)"
experimental_target = "breast tumor cells MDA-MB-436"
measured_quantity = "inhibition at 10 µM"
numeric_readout = 88.9

[[record]]
molecule = "CCc1cc2ncc(CN3CCN(c4ccc(C(=O)NC5CCN(c6cccc(NC7CCC(=O)NC7=O)c6)CC5)nc4)CC3)cc2[nH]c1=O (stereo not drawn)"
experimental_target = "breast tumor cells MDA-MB-436"
measured_quantity = "inhibition at 10 µM"
numeric_readout = 84.9

[[record]]
molecule = "CCc1cc2ncc(CN3CCN(c4ccc(C(=O)NC5CCN(c6ccc7c(c6)C(=O)N(C6CCC(=O)NC6=O)C7=O)CC5)nc4)CC3)cc2[nH]c1=O (stereo not drawn)"
experimental_target = "breast tumor cells MDA-MB-436"
measured_quantity = "inhibition at 10 µM"
numeric_readout = 99.8

[[record]]
molecule = "Cc1nc2ccc(CN3CCN(c4ccc(C(=O)NC5CCN(c6cccc(N7CCC(=O)NC7=O)c6)CC5)nc4F)CC3)c(F)c2[nH]c1=O"
experimental_target = "breast tumor cells MDA-MB-436"
measured_quantity = "inhibition at 10 µM"
numeric_readout = 99


----------
Overview of reported inhibition at 10 µM across a group of molecules:
- System: breast tumor cells MDA-MB-436
- Protocol: MDA-MB-436 cell activity test (CellTiter-Glo, 7 days)
- Assay type: cell-based, human
- Assay Conditions: Homo sapiens, MDA-MB-436, MDA-MB-436 cells, 10 μM; read-out: Max inh. % 10 μM
Measured Quantity: inhibition at 10 µM (%)

[[record]]
molecule = "CCc1cc2ncc(CN3CC=C(c4ccc(C(=O)NC5CCN(c6cccc(NC7CCC(=O)NC7=O)c6)CC5)nc4)CC3)cc2[nH]c1=O (stereo not drawn)"
unit_label = "%"
numeric_readout = 76.8

[[record]]
molecule = "CCc1cc2ncc(CN3CCN(c4ccc(C(=O)NC5CN(c6cc7c(cc6F)C(=O)N(C6CCC(=O)NC6=O)C7=O)C5)nc4)CC3)cc2[nH]c1=O (stereo not drawn)"
unit_label = "%"
numeric_readout = 99

[[record]]
molecule = "CCc1cc2ncc(CN3CCN(c4ccc(C(=O)NC5CN(c6cccc7c6C(=O)N(C6CCC(=O)NC6=O)C7=O)C5)nc4)CC3)cc2[nH]c1=O (stereo not drawn)"
unit_label = "%"
numeric_readout = 78.8

[[record]]
molecule = "CCc1cc2ncc(CN3CCN(c4ccc(C(=O)NC5CCN(C6CN(c7cccc8c7C(=O)N(C7CCC(=O)NC7=O)C8=O)C6)CC5)nc4)CC3)cc2[nH]c1=O (stereo not drawn)"
unit_label = "%"
numeric_readout = 87.2

[[record]]
molecule = "CCc1cc2ncc(CN3CCN(c4ccc(C(=O)NC5CCN(c6ccc7c(c6)C(=O)N(C6CCC(=O)NC6=O)C7)CC5)nc4)CC3)cc2[nH]c1=O (stereo not drawn)"
unit_label = "%"
numeric_readout = 94.6

[[record]]
molecule = "CCc1cc2ncc(CN3CCN(c4ccc(C(=O)NC5CCC(Oc6ccc7c(c6)C(=O)N(C6CCC(=O)NC6=O)C7=O)CC5)nc4)CC3)cc2[nH]c1=O (stereo not drawn)"
unit_label = "%"
numeric_readout = 93.2

[[record]]
molecule = "CCc1cc2ncc(CN3CC=C(c4ccc(C(=O)Nc5cnn(C6CCN(c7ccc8c(c7)C(=O)N(C7CCC(=O)NC7=O)C8=O)CC6)c5)nc4)CC3)cc2[nH]c1=O (stereo not drawn)"
unit_label = "%"
numeric_readout = 87.2

[[record]]
molecule = "CCc1cc2ncc(CN3CCN(c4ccc(C(=O)NC5CCN(C(=O)CC67CC8C[C@H](C6)C[C@H](C8)C7)CC5)nc4)CC3)cc2[nH]c1=O"
unit_label = "%"
numeric_readout = 89.6

[[record]]
molecule = "CCc1cc2ncc(CN3CCN(c4ccc(C(=O)NC5CN(C(=O)CC67CC8C[C@H](C6)C[C@H](C8)C7)C5)nc4)CC3)cc2[nH]c1=O"
unit_label = "%"
numeric_readout = 89.7

[[record]]
molecule = "CCc1cc2ncc(CN3CCN(c4ccc(C(=O)NC5CCN(c6ncc(N7CCC(=O)NC7=O)cn6)CC5)nc4)CC3)cc2[nH]c1=O"
unit_label = "%"
numeric_readout = 88.4

[[record]]
molecule = "CCc1cc2ncc(CN3CC=C(c4ccc(C(=O)N[C@H]5CCN(c6ccc7c(c6)C(=O)N(C6CCC(=O)NC6=O)C7=O)C5)nc4)CC3)cc2[nH]c1=O (stereo partly drawn)"
unit_label = "%"
numeric_readout = 98

[[record]]
molecule = "CCc1cc2ncc(CN3CCN(c4ccc(C(=O)NC5CC(Oc6ccc7c(c6)C(=O)N(C6CCC(=O)NC6=O)C7=O)C5)nc4)CC3)cc2[nH]c1=O (stereo not drawn)"
unit_label = "%"
numeric_readout = 82

